- experiment_summary: phase I plasma pharmacokinetics (non-compartmental, LC-MS/MS)
- Assay type: in vivo, human
- assay_setup: human, plasma, po, 400 mg, single oral administration, 400 mg larotinib mesylate, plasma; read-out: Vz/F, mean (min–max)
Counter-ions that a name gives are not always drawn.
measurement_kind: Vd/F

- compound: "COc1cc2ncnc(Nc3ccc(F)c(Cl)c3)c2cc1OCCCN1C[C@@H]2OCCO[C@@H]2C1 [larotinib mesylate]"
  endpoint_value: "7410 L"

----------
- experiment_summary: phase I plasma pharmacokinetics (non-compartmental, LC-MS/MS)
- Format: in vivo, human
- assay_setup: human, plasma, po, 150 mg, single oral administration, 150 mg larotinib mesylate, plasma; read-out: Vz/F, mean (min–max)
Structures can show the parent of a compound that is named as a salt.

- molecule: "COc1cc2ncnc(Nc3ccc(F)c(Cl)c3)c2cc1OCCCN1C[C@@H]2OCCO[C@@H]2C1 [larotinib mesylate]"
  Vd/F: "1650 L"
